- protocol-notes: Cmax in Sprague-Dawley rat at 10 mg/kg, po administered as single dose by LC-MS/MS analysis
- Format: ADME, organism-based
- Design: dose 10 mg/kg, route oral
- condition-label: in vivo
readout-name: Cmax (µM)

INSERT INTO measurements (given_smiles, measured) VALUES
  ('CN1CCN(c2ccc(C(=O)Nc3n[nH]c4ccc(Cc5cc(F)cc(F)c5)cc34)c(NC3CCOCC3)c2)CC1', 0.5);

====

# pIC50 annotations
- protocol-notes: Antiproliferative activity against human KARPAS299 cells incubated for 72 hrs by cell titer-glo assay
- condition-label: KARPAS-299, 72 h
pIC50: −log10 of the molar value.
readout-name: pIC50

INSERT INTO assay_data (given_smiles, measured) VALUES
  ('CN1CCN(c2ccc(C(=O)Nc3n[nH]c4ccc(Cc5cc(F)cc(F)c5)cc34)c(NCc3ccccc3)c2)CC1', 5.90),
  ('CN1CCN(c2ccc(C(=O)Nc3n[nH]c4ccc(Cc5cc(F)cc(F)c5)cc34)c(N[C@H]3CC[C@H](O)CC3)c2)CC1', 7.17),
  ('C[C@H](c1cc(F)cc(F)c1)c1ccc2[nH]nc(NC(=O)c3ccc(N4CCN(C)CC4)cc3NC3CCOCC3)c2c1', 7.39),
  ('COCC(COC)Nc1cc(N2CCN(C)CC2)ccc1C(=O)Nc1n[nH]c2ccc(Cc3cc(F)cc(F)c3)cc12', 6.47);
